- Measurement Target: Serine/threonine-protein kinase PIM (Homo sapiens, UniProt P11309+Q9P1W9+Q86V86)
- Assay Summary: Inhibition of Pim1/2 in human KMS-12 cells assessed as decrease in BAD phosphorylation at Ser112 by Western blot method
- Format: cell-based
Measurement Type: IC50 (nM)

Known IC50 results, listed for orientation:
Prompt: Reported IC50 for O[C@H]1CCCN(c2ccncc2Nc2ncc3ccc(-c4c(F)cccc4F)nn23)C1 : what is it?
Response: 4807

Prompt: Reported IC50 for N[C@H]1CCCN(c2ccccc2Nc2ncc3ccc(-c4c(F)cccc4F)nn23)C1 : what is it?
Response: 3440

Prompt: Reported IC50 for N[C@H]1C[C@@H](F)CN(c2ccncc2Nc2ncc3ccc(-c4c(F)cccc4F)nn23)C1 : what is it?
Response: 983

1 = N[C@H]1CCCN(c2ccncc2Nc2ncc3ccc(-c4ccccc4Cl)nn23)C1
2 = N[C@H]1CCCN(c2ccncc2Nc2ncc3ccc(-c4ccccn4)nn23)C1
Prompt: Hi there, can you help? I need to know whether 1 or 2 has lower measured IC50. Your answer should be the label of the entry you select.
Response: 2
(2: 1760 nM, 1: 2668 nM)

====

- Assay Summary: AUC (0 to infinity) in Sprague-Dawley rat at 5 mg/kg, po
- Assay type: ADME, organism-based
- Design: dose 5 mg/kg, route oral, time infinity
- Condition Description: Sprague-Dawley, in vivo
Measurement Type: AUC(0-inf) (µM·h)

Prompt: Reported AUC(0-inf) for C[C@@H]1C[C@H](N)CN(c2ccncc2Nc2ncc3ccc(-c4ncccc4F)nn23)C1 : what is it?
Response: 3.2

A = C[C@@H]1CC[C@H](N)CN1c1ccncc1Nc1ncc2ccc(-c3c(F)cccc3F)nn12
B = N[C@H]1CCCN(c2ccncc2Nc2ncc3ccc(-c4ncccc4F)nn23)C1
Prompt: Hi there, can you help? I need to know whether A or B has lower measured AUC(0-inf). Your answer should be the label of the entry you select.
Response: A

====

- Assay Summary: Aqueous solubility in 0.01N HCl after 48 to 72 hrs by HPLC analysis
- Format: physicochemical
Measurement Type: solubility (µg/mL)
Report only the number, with the unit µg/mL understood.

Prompt: Reported solubility for C[C@@H]1C[C@H](N)CN(c2ccncc2Nc2ncc3ccc(-c4c(F)cccc4F)nn23)C1 : what is it?
Response: 200

====

- Assay Summary: Intrinsic clearance in rat liver microsomes at 1 uM after 30 mins by LC-MS HRMS analysis
- Type: ADME
- Condition Description: read-out: CLH
Measurement Type: microsomal CLint at 1 µM

Known microsomal CLint at 1 µM results, listed for orientation:
Prompt: Reported microsomal CLint at 1 µM for C[C@@H]1CC[C@H](N)CN1c1ccncc1Nc1ncc2ccc(-c3c(F)cccc3F)nn12 : what is it?
Response: > 399 µL/min/mg

Prompt: Reported microsomal CLint at 1 µM for N[C@H]1CCCN(c2ccncc2Nc2ncc3ccc(-c4ccccn4)nn23)C1 : what is it?
Response: < 10 µL/min/mg

Prompt: Reported microsomal CLint at 1 µM for C[C@H]1CCN(c2ccncc2Nc2ncc3ccc(-c4c(F)cccc4F)nn23)C[C@H]1N : what is it?
Response: > 399 µL/min/mg

Prompt: Reported microsomal CLint at 1 µM for O[C@H]1CCCN(c2ccncc2Nc2ncc3ccc(-c4c(F)cccc4F)nn23)C1 : what is it?
Response: > 399 µL/min/mg

More entries:
Prompt: Reported microsomal CLint at 1 µM for C[C@@H]1C[C@H](N)CN(c2ccncc2Nc2ncc3ccc(-c4c(F)cccc4F)nn23)C1 : what is it?
Response: > 399 µL/min/mg

Prompt: Reported microsomal CLint at 1 µM for N[C@H]1CCN(c2ccncc2Nc2ncc3ccc(-c4c(F)cccc4F)nn23)C1 : what is it?
Response: < 14 µL/min/mg

Prompt: Reported microsomal CLint at 1 µM for Fc1cccc(F)c1-c1ccc2cnc(Nc3cnccc3N3CCCCC3)n2n1 : what is it?
Response: > 399 µL/min/mg

Prompt: Reported microsomal CLint at 1 µM for N[C@@H]1CN(c2ccncc2Nc2ncc3ccc(-c4c(F)cccc4F)nn23)CC[C@H]1F : what is it?
Response: > 399 µL/min/mg

====

- Measurement Target: Serine/threonine-protein kinase PIM (Homo sapiens, UniProt P11309+Q9P1W9+Q86V86)
- Assay Summary: Inhibition of Pim1/2 in human KMS-12 cells assessed as decrease in BAD phosphorylation at Ser112 by Western blot method
- Assay type: cell-based
Measurement Type: IC50 (nM)
Report only the number, with the unit nM understood.

Known IC50 results, listed for orientation:
Prompt: Reported IC50 for N[C@H]1CCCN(c2ccncc2Nc2ncc3ccc(-c4ccc(Cl)cc4Cl)nn23)C1 : what is it?
Response: 5007

Prompt: Reported IC50 for N[C@H]1CCCN(c2ccncc2Nc2ncc3ccc(-c4c(F)cccc4F)nn23)C1 : what is it?
Response: 403

More entries:
Prompt: Reported IC50 for C[C@@H]1CCN(c2ccncc2Nc2ncc3ccc(-c4c(F)cccc4F)nn23)C[C@H]1N : what is it?
Response: 212
